- Tested on: 299254-011-R-J1-PDC complex spheroids viability
- Assay Name: Anticancer human tumor 299254-011-R-J1-PDC patient-derived melanoma cell line growth inhibition [GQUAD]
- Condition Parameters: second compound 3.16 µM; first compound 1 µM; stronger effect = lower value
Measurement Label: viability, T/C (%)
The figure you give is taken to be in %; do not add the unit.

Would you please look over these solved cases?
O=c1[nH]cc(F)c(=O)[nH]1 + CN(C)c1ccc(Nc2c3ccc(NC(=O)CCN4CCCC4)cc3nc3cc(NC(=O)CCN4CCCC4)ccc23)cc1
95.1
Cc1cccc(N(C)C(=O)C2C(O)CCN2c2nc(C)cc(C(F)(F)F)c2C#N)c1 (stereo unspecified) + Cc1cnc(CNC(=O)c2c(=O)c3ccc(N4CCCN(C)CC4)nc3n3c2sc2ccccc23)cn1
85.8
CC1COCCN1c1cc(C2(O)CC3CCC(C2)O3)c2cnn(-c3ccn[nH]3)c2n1 (stereo unspecified) + Cc1cnc(CNC(=O)c2c(=O)c3ccc(N4CCCN(C)CC4)nc3n3c2sc2ccccc23)cn1
10.6
Cc1cccc(N(C)C(=O)C2C(O)CCN2c2nc(C)cc(C(F)(F)F)c2C#N)c1 (stereo unspecified) + CN(C)c1ccc(Nc2c3ccc(NC(=O)CCN4CCCC4)cc3nc3cc(NC(=O)CCN4CCCC4)ccc23)cc1
108
Nc1ccn(C2OC(CO)C(O)C2(F)F)c(=O)n1 (stereo unspecified) + Cc1[nH]c2ccc(F)cc2c1-c1nc2c3cccnc3c3ncccc3c2[nH]1
58.1

Entry CCCS(=O)(=O)Nc1ccc(F)c(C(=O)c2c[nH]c3ncc(-c4ccc(Cl)cc4)cc23)c1F + Cc1[nH]c2ccc(F)cc2c1-c1nc2c3cccnc3c3ncccc3c2[nH]1 : reported viability, T/C = ?
115

###

This listing pairs compounds with measured viability, T/C.
- Test system: 299254-011-R-J1-PDC complex spheroids viability
- Assay Name: Anticancer human tumor 299254-011-R-J1-PDC cell line growth inhibition [GQUAD];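 further: spheroids exposed to the agents for seven days before readout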;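 on viability, T/C: percent viability relative to DMSO vehicle control wells = 100%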
- Condition Parameters: second compound 3.16 µM; first compound 0.1 µM; stronger effect = lower value

C#Cc1c(F)ccc2cc(O)cc(-c3ncc4c(N5CC6CCC(C5)N6)nc(OCC56CCCN5CC(F)C6)nc4c3F)c12 (stereo not given) + Cc1cnc(CNC(=O)c2c(=O)c3ccc(N4CCCN(C)CC4)nc3n3c2sc2ccccc23)cn1
103%
O=C(c1cc(Cc2n[nH]c(=O)c3ccccc23)ccc1F)N1CCN(C(=O)C2CC2)CC1 + CN(C)c1ccc(Nc2c3ccc(NC(=O)CCN4CCCC4)cc3nc3cc(NC(=O)CCN4CCCC4)ccc23)cc1
86.9%

What value of measured viability, T/C is listed for COc1ncnc(C2CC2)c1-c1ncc2cnn(Cc3ccc(-c4nc(C(F)(F)F)cn4C(C)C)cc3)c2n1 + CN(C)c1ccc(Nc2c3ccc(NC(=O)CCN4CCCC4)cc3nc3cc(NC(=O)CCN4CCCC4)ccc23)cc1 ?
99.8%

Ok, now C=CC(=O)N1CCN(c2nc(=O)n(-c3c(C)ccnc3C(C)C)c3nc(-c4c(O)cccc4F)c(F)cc23)C(C)C1 (stereo not given) + Cc1[nH]c2ccc(F)cc2c1-c1nc2c3cccnc3c3ncccc3c2[nH]1
81.1%

Could you do the same for C=CC(=O)N1CCN(c2nc(=O)n(-c3c(C)ccnc3C(C)C)c3nc(-c4c(O)cccc4F)c(F)cc23)C(C)C1 (stereo not given) + CN(C)c1ccc(Nc2c3ccc(NC(=O)CCN4CCCC4)cc3nc3cc(NC(=O)CCN4CCCC4)ccc23)cc1 , please?
83.3%

###

- System: 299254-011-R-J1-PDC complex spheroids viability
- Assay Name: Anticancer human tumor 299254-011-R-J1-PDC cell line growth inhibition [GQUAD]; active = viability on the fitted dose curve at most 10% of control; inactive = the rest;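 further: spheroids exposed to the agents for seven days before readout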
- Condition Parameters: second compound 10 µM; first compound 0.00999 µM
Outcome (select one): active, inactive

Solved entries:
CCc1c2c(nc3ccc(O)cc13)-c1cc3c(c(=O)n1C2)COC(=O)[C@]3(O)CC + CN(C)c1ccc(Nc2c3ccc(NC(=O)CCN4CCCC4)cc3nc3cc(NC(=O)CCN4CCCC4)ccc23)cc1
inactive
Cn1ncnc1[C@H]1c2n[nH]c(=O)c3cc(F)cc(c23)N[C@@H]1c1ccc(F)cc1 + CN(C)c1ccc(Nc2c3ccc(NC(=O)CCN4CCCC4)cc3nc3cc(NC(=O)CCN4CCCC4)ccc23)cc1
inactive
Cc1[nH]c2ccccc2c1CCNCc1ccc(/C=C/C(=O)NO)cc1 + Cc1cnc(CNC(=O)c2c(=O)c3ccc(N4CCCN(C)CC4)nc3n3c2sc2ccccc23)cn1
active

Now, please, on to the next compound.
What did the test return for Cc1[nH]c2ccccc2c1CCNCc1ccc(/C=C/C(=O)NO)cc1 + Cc1[nH]c2ccc(F)cc2c1-c1nc2c3cccnc3c3ncccc3c2[nH]1 ?
inactive

###

IC50 values, listed per item
- Tested on: 299254-011-R-J1-PDC complex spheroids viability
- Assay Name: Anticancer human tumor 299254-011-R-J1-PDC cell line growth inhibition [GQUAD];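 further: spheroids exposed to the agents for seven days before readout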
- Condition Parameters: curve of compound

Worked cases, answers included:
O=C(c1cc(Cc2n[nH]c(=O)c3ccccc23)ccc1F)N1CCN(C(=O)C2CC2)CC1
> 10 µM
CCc1c2c(nc3ccc(O)cc13)-c1cc3c(c(=O)n1C2)COC(=O)[C@]3(O)CC
> 0.316 µM
Cn1ncnc1[C@H]1c2n[nH]c(=O)c3cc(F)cc(c23)N[C@@H]1c1ccc(F)cc1
> 0.316 µM
CC(C)(O)C1CCC(Nc2ccc3ncc(-c4cccc(C(F)(F)F)c4)n3n2)CC1 (stereo not drawn)
> 10 µM
C=CC(=O)N1CCN(c2nc(=O)n(-c3c(C)ccnc3C(C)C)c3nc(-c4c(O)cccc4F)c(F)cc23)C(C)C1 (stereo not drawn)
> 10 µM
COc1cc(C2c3cc4c(cc3C(OC3OC5COC(C)OC5C(O)C3O)C3COC(=O)C23)OCO4)cc(OC)c1O (stereo not drawn)
> 10 µM
CC[C@@]1(O)C(=O)OCc2c1cc1n(c2=O)Cc2cc3c(CN(C)C)c(O)ccc3nc2-1
> 0.316 µM

Please look at the following molecule next.
Param readout= IC50; system= 299254-011-R-J1-PDC complex spheroids viability; entry= "COc1ncnc(C2CC2)c1-c1ncc2cnn(Cc3ccc(-c4nc(C(F)(F)F)cn4C(C)C)cc3)c2n1" ; returns value.
> 10 µM

###

- System: 299254-011-R-J1-PDC complex spheroids viability
- Assay Name: Anticancer human tumor 299254-011-R-J1-PDC cell line growth inhibition [GQUAD];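 further: spheroids exposed to the agents for seven days before readout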;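 on viability, T/C: percent viability relative to DMSO vehicle control wells = 100%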
- Condition Parameters: second compound 3.16 µM; first compound 0.1 µM; stronger effect = lower value
Measurement Label: viability, T/C (%)
Give the value, in units of %, as a plain number.

Example entries begin here.
C=CC(=O)N1CCN(c2nc(=O)n(-c3c(C)ccnc3C(C)C)c3nc(-c4c(O)cccc4F)c(F)cc23)C(C)C1 (stereo not given) + Cc1cnc(CNC(=O)c2c(=O)c3ccc(N4CCCN(C)CC4)nc3n3c2sc2ccccc23)cn1
78.9
CC(C)(O)C1CCC(Nc2ccc3ncc(-c4cccc(C(F)(F)F)c4)n3n2)CC1 (stereo not given) + Cc1cnc(CNC(=O)c2c(=O)c3ccc(N4CCCN(C)CC4)nc3n3c2sc2ccccc23)cn1
85.9
O=C(NO)c1cnc(N2CCN(S(=O)(=O)c3ccc4ccccc4c3)CC2)nc1 + Cc1cnc(CNC(=O)c2c(=O)c3ccc(N4CCCN(C)CC4)nc3n3c2sc2ccccc23)cn1
91.3

# get_value(readout='viability, T/C', item= CC1COCCN1c1cc(C2(O)CC3CCC(C2)O3)c2cnn(-c3ccn[nH]3)c2n1 (stereo not given) + CN(C)c1ccc(Nc2c3ccc(NC(=O)CCN4CCCC4)cc3nc3cc(NC(=O)CCN4CCCC4)ccc23)cc1 )
61

Would you kindly repeat that for Nc1ccn(C2OC(CO)C(O)C2(F)F)c(=O)n1 (stereo not given) + Cc1[nH]c2ccc(F)cc2c1-c1nc2c3cccnc3c3ncccc3c2[nH]1 ?
97

###

- Tested on: 299254-011-R-J1-PDC complex spheroids viability
- Assay Name: Anticancer human tumor 299254-011-R-J1-PDC cell line growth inhibition [GQUAD];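 further: spheroids exposed to the agents for seven days before readout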
- Condition Parameters: compound alone; run of 02/26/2024
Measurement Label: IC50

Cc1[nH]c2ccc(F)cc2c1-c1nc2c3cccnc3c3ncccc3c2[nH]1
> 10 µM

Turning now to a further compound:
Request the reported IC50 associated with "CN(C)c1ccc(Nc2c3ccc(NC(=O)CCN4CCCC4)cc3nc3cc(NC(=O)CCN4CCCC4)ccc23)cc1"
> 10 µM

###

- System: 299254-011-R-J1-PDC complex spheroids viability
- Assay Name: Anticancer human tumor 299254-011-R-J1-PDC cell line growth inhibition [GQUAD];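 further: spheroids exposed to the agents for seven days before readout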
- Condition Parameters: curve of first compound; second compound 0.1 µM
Measurement Label: pIC50
Entry type: numeric. Quantity: pIC50, the -log10 of concentration in molar units.

Consider the worked cases shown below.
Cc1[nH]c2ccccc2c1CCNCc1ccc(/C=C/C(=O)NO)cc1 + Cc1[nH]c2ccc(F)cc2c1-c1nc2c3cccnc3c3ncccc3c2[nH]1
6.89
CC1COCCN1c1cc(C2(O)CC3CCC(C2)O3)c2cnn(-c3ccn[nH]3)c2n1 (stereo unspecified) + Cc1[nH]c2ccc(F)cc2c1-c1nc2c3cccnc3c3ncccc3c2[nH]1
6.87
O=C(NO)c1cnc(N2CCN(S(=O)(=O)c3ccc4ccccc4c3)CC2)nc1 + CN(C)c1ccc(Nc2c3ccc(NC(=O)CCN4CCCC4)cc3nc3cc(NC(=O)CCN4CCCC4)ccc23)cc1
6.35
C=CCn1c(=O)c2cnc(Nc3ccc(N4CCN(C)CC4)cc3)nc2n1-c1cccc(C(C)(C)O)n1 + Cc1cnc(CNC(=O)c2c(=O)c3ccc(N4CCCN(C)CC4)nc3n3c2sc2ccccc23)cn1
5.82

// next item, pIC50 requested
Recorded pIC50 for CC1COCCN1c1cc(-c2ccnn2C)c2ccnc(-c3ccn[nH]3)c2n1 (stereo unspecified) + Cc1cnc(CNC(=O)c2c(=O)c3ccc(N4CCCN(C)CC4)nc3n3c2sc2ccccc23)cn1 , please?
6.92
